Tested on: LOX IMVI melanoma
methodNotes: NCI-60 one-dose screen, 48 h
conditionNotes: 10 µM
This is part of a sample that, as a whole, favours compounds with a hit. Of some 83,000 tested, about 20% had one in any assay. Calls of active or inactive are those of the source. The calls were made as follows: active = growth percent below 10; inactive = the rest.
Outcome codes: True = active, False = inactive

| compound | classAssignment |
| --- | --- |
| CCCCCCCCCCCCc1ccc(C(=O)/C=C/C(=O)O)cc1 | True |
| CCc1nn2c(-c3cc(OC)c(OC)c(OC)c3)c(-c3cc(OC)c(OC)c(OC)c3)nc2s1 | False |
| Cc1ccc2oc(=O)cc(/C(=C3/C=CC=N3)c3ccc[nH]3)c2c1 | True |
| COc1cc(-c2nc3ccccc3[nH]2)ccc1OCc1nnc(-c2ccc(Br)cc2)o1 | False |
| O=[N+]([O-])C1CC2C=CC1C2 (stereo not given) | False |
| CNC(=O)c1cc(Oc2ccc(NC(=O)Nc3ccc(Cl)c(OC4CCCCC4)c3)c(F)c2)ccn1 | False |
| CC1(C)CNC(=O)N1 | False |
| CCCCCC(=O)N1c2ccccc2NC2=C(C(=O)CC(c3ccc(OC)c(OC)c3)C2)C1c1ccc(C(F)(F)F)cc1 (stereo not given) | False |
| Cc1cc(=O)oc2cc(OCc3cn(CC(O)CO)nn3)ccc12 (stereo not given) | False |
| CCCCOCC(=O)NC(NP(=O)(N(C)C)N(C)C)C(Cl)(Cl)Cl (stereo not given) | False |

* * *

System: SNB-19 CNS
methodNotes: NCI-60 one-dose screen, 48 h (100 = growth as untreated, 0 = no growth, -100 = all killed)
conditionNotes: 10 µM
This is part of a sample that, as a whole, favours compounds with a hit. Of some 83,000 tested, about 20% had one in any assay.
Recorded growth for the following molecules

| molecule | growth [%] |
| --- | --- |
| O=[N+]([O-])c1ccc(-c2nc(-c3ccccc3)c(-c3ccccc3)n2-c2ccccc2)cc1 | 65.9 |
| OC(CNC1CCCC1)Cn1c2ccccc2c2ccccc21 (stereo unspecified) | 33.8 |
| CCCCCCN=C(N)CCCCCCCCCCC(N)=NCCCCCC | 18.4 |
| CCOC(=O)C(=O)Cc1cccnn1 | 102 |
| COc1cc(-c2nc3ccccc3[nH]2)ccc1OCC(=O)N=Nc1c(O)[nH]c2ccccc12 | 98.4 |
| O/N=C1\CCC2CCCCC2C1 (stereo unspecified) | 98.5 |
| COc1ccc(-c2nc(SCC(=O)c3ccc(Br)cc3)[nH]c(=O)c2C#N)cc1 | 109 |
| S=c1c2ncccc2c(-c2ccccn2)nn1Cc1ccccn1 | 103 |
| C/C(=N\NC(=O)c1sc(=S)n(C)c1N)c1cc2ccccc2o1 | 89.9 |
| Cc1cc(Nc2cccc(F)c2)nc(NCc2ccccc2)n1 | 29.4 |
| COc1ccc(C2C=C(c3ccc(Cl)c(Cl)c3)N=C3SC(C)=CN32)cc1 (stereo unspecified) | 96.6 |

* * *

Quick list: growth per entry.
System: HOP-92 NSCLC
methodNotes: NCI-60 one-dose screen, 48 h (100 = growth as untreated, 0 = no growth, -100 = all killed)
conditionNotes: 10 µM
Compounds without any hit were thinned out: in the full panel of roughly 83,000, 20% have a hit.
measuredEndpoint: growth (%)

| compound | measuredEndpoint | endpointResult |
| --- | --- | --- |
| O=C(CSc1nnc(-c2ccc(Cl)cc2)o1)c1ccccc1 | growth | 107 |
| CN1/C(=C\C(I)C(I)C2=[N+](C)c3ccccc3C2(C)C)C(C)(C)c2ccccc21 (stereo not given) | growth | -25.7 |
| CCOC(=O)C1=C(Nc2ccc(OC)cc2)C(N)=NC1=N | growth | 48.4 |
| CCc1nn2c(-c3ccccc3)c(-c3cc(OC)c(OC)c(OC)c3)nc2s1 | growth | 49.8 |
| Fc1ccc(Nc2ccnc(N3CCN(c4ccnc5cc(Cl)ccc45)CC3)n2)cc1 | growth | -7.36 |
| COc1ccc(-c2nc(-c3nc4ccc(OC)cc4[nH]3)c3ccccn23)cc1 | growth | 13.9 |
| COCCOC(=O)NC(=O)Nc1ccc(/C(=N/O)c2ccc(Cl)cc2)cc1 | growth | 44.6 |
| COc1cc(-c2cc(-c3ccc(C)cc3)nc3nc(N)[nH]c(=O)c23)ccc1Oc1ccnc2cc(Cl)ccc12 | growth | 70.4 |
| Cc1ccc(/C(CS(=O)(=O)c2ccc(C)cc2)=N\O)cc1 | growth | 87.4 |
| Cc1nc(N)sc1Sc1nc2ccc(Cl)cc2c(=O)n1-c1ccc(Oc2ccccc2)cc1 | growth | 74.4 |
